target system: AgSho1
assay details: SPOT peptide array binding signal intensity (averaged, normalized) (arbitrary units (background-subtracted, floor 0; scale differs between SH3 domains)); higher = stronger binding of the SH3 domain to the peptide
Assignment: determine reported SPOT peptide array binding signal intensity for the given binders.
Could you respond with only the numeric value?

Task: Could you share which SPOT peptide array binding signal intensity value was measured for NAGIRPKFILALNDE ?
Output: 9.5

Task: Could you share which SPOT peptide array binding signal intensity value was measured for NFKRLLPRDPSEKSS ?
Output: 99.5

Task: Could you share which SPOT peptide array binding signal intensity value was measured for RKNRAPPQRPRFNRE ?
Output: 47.5

Task: Could you share which SPOT peptide array binding signal intensity value was measured for VATSTSPKLPPRGKQ ?
Output: 18

Task: Could you share which SPOT peptide array binding signal intensity value was measured for RPVPRRPSQPLNTLS ?
Output: 12.8

Task: Could you share which SPOT peptide array binding signal intensity value was measured for LSKRLPLRFPEHTSS ?
Output: 17
